test: T. cruzi intracellular proliferation inhibitors, primary screen, cell-based, beta-gal Tulahuen parasites, NIH3T3 host, luminescence (AID 624255); settings: T. cruzi beta-gal in NIH3T3, GalScreen luminescence, 90 h; at 8.34 µM
Hit rate of the full screen: of about 77,000 compounds, about 4,600 (6%) were called active. Another 1% or so got no clear call; they are omitted.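 How the source made its calls: active means mean inhibition above about 93%, with at least 55% of replicates each passing it (limit read from the data, passing the limit was not always enough); inconclusive means only one of those two conditions holds; inactive means neither condition holds.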 This is one part of a sample in which actives are shown more often than they occur.
# output must be one of active, inactive

{"molecule smiles": "CO[C@@H](CN(C)S(=O)(=O)c1cccc(Cl)c1)[C@H](C)CN([C@H](C)CO)S(=O)(=O)c1cccc(Cl)c1", "label value": "inactive"}
{"molecule smiles": "Cc1ccccc1-c1ccc([C@H]2[C@H]3CN(S(=O)(=O)c4ccc(F)cc4)CCCCN3[C@H]2CO)cc1", "label value": "active"}

Short answer needed: outcome of this test for `CO[C@@H]1CN(C)C(=O)c2ccc(NC(=O)Nc3ccccc3)cc2OC[C@@H](C)N(C(=O)CN(C)C)C[C@H]1C` ?
inactive

What would you report for `C[C@H](CO)N1C[C@H](C)[C@H](CN(C)Cc2ccc(Cl)c(Cl)c2)OCCCC[C@H](C)Oc2ccc(NC(=O)NC3CCCCC3)cc2C1=O` ?
inactive

What would you report for `COc1ccc(NC(=O)Nc2ccc3c(c2)C(=O)N([C@H](C)CO)C[C@H](C)[C@H](CN(C)Cc2ccncc2)OCCCC[C@H](C)O3)cc1` ?
inactive
